- System: KM12 Cliff (G595R) cell line
- ASSAY OVERVIEW: NTRK G595R mutant cellular assay (KM12 Cliff, CellTiter-Glo)
- Format: cell-based
- EXPERIMENTAL SETUP: Homo sapiens; KM12 Cliff (G595R) cells, 72 hr, CellTiter-Glo
pIC50: −log10 of the molar value.
For each entry below, report its pIC50 value.

Take a look at these entries with their results.
>  <COMPOUND STRUCTURE>
N#Cc1cc(F)cc([C@H]2C[C@H](F)CN2c2ccn3ncc(C#N)c3n2)c1

>  <pIC50>
> 8.00

$$$$
>  <COMPOUND STRUCTURE>
N#Cc1cnn2ccc(N3C[C@@H](F)C[C@@H]3c3cc(F)cc(S(N)(=O)=O)c3)nc12

>  <pIC50>
7.00 to 8.00

$$$$
>  <COMPOUND STRUCTURE>
N#Cc1cnn2ccc(N3C[C@@H](F)C[C@@H]3c3cncc(F)c3)nc12

>  <pIC50>
7.00 to 8.00

$$$$
>  <COMPOUND STRUCTURE>
N#Cc1cnn2ccc(N3C[C@@H](F)C[C@@H]3c3cc(F)ccc3OC(F)(F)F)nc12

>  <pIC50>
> 8.00

$$$$

Take each entry in turn and give its pIC50.
1. N#Cc1cc(F)cc([C@H]2C[C@H](F)CN2c2nc3c(C#N)cnn3cc2F)c1
2. N#Cc1cnn2ccc(N3C[C@@H](F)C[C@@H]3c3cc(F)cc(Cl)c3)nc12
3. CC(C)(O)c1cc(F)cc([C@H]2C[C@H](F)CN2c2ccn3ncc(C#N)c3n2)c1
4. COc1ncc(F)cc1[C@H]1C[C@H](F)CN1c1ccn2ncc(C#N)c2n1

Given back:
["> 8.00", "> 8.00", "6.00 to 7.00", "> 8.00"]

----------
- Test system: KM12 Cliff (G595R) cell line
- ASSAY OVERVIEW: NTRK G595R mutant cellular assay (KM12 Cliff, CellTiter-Glo)
- Assay type: cell-based
- EXPERIMENTAL SETUP: Homo sapiens; KM12 Cliff (G595R) cells, 72 hr, CellTiter-Glo
pIC50: −log10 of the molar value.
PARAMETER MEASURED: pIC50

>  <COMPOUND STRUCTURE>
CN(C)C(=O)c1cc(F)cc([C@H]2C[C@H](F)CN2c2ccn3ncc(C#N)c3n2)c1

>  <RESULT>
6.00 to 7.00

$$$$
>  <COMPOUND STRUCTURE>
Cn1cc(F)cc([C@H]2C[C@H](F)CN2c2ccn3ncc(C#N)c3n2)c1=O

>  <RESULT>
6.00 to 7.00

$$$$
>  <COMPOUND STRUCTURE>
N#Cc1cnn2ccc(N3CC(F)(F)C[C@@H]3c3cncc(F)c3)nc12

>  <RESULT>
6.00 to 7.00

$$$$
>  <COMPOUND STRUCTURE>
N#Cc1cnn2ccc(N3C[C@@H](F)C[C@@H]3c3cc(F)cnc3Cl)nc12

>  <RESULT>
> 8.00

$$$$
>  <COMPOUND STRUCTURE>
N#Cc1cnn2ccc(N3C[C@@H](C#N)C[C@@H]3c3cc(F)ccc3F)nc12

>  <RESULT>
6.00 to 7.00

$$$$

The record that follows has no pIC50 shown yet.
Asked: // fetch pIC50 given entry "N#Cc1cnn2ccc(N3C[C@@H](F)C[C@@H]3c3cc(F)cc(C(N)=O)c3)nc12"
Given back: 7.00 to 8.00

----------
- TEST TARGET: wild type NTRK1 enzyme (Homo sapiens (Human), UniProt P04629)
- Sequence (P04629 33-796): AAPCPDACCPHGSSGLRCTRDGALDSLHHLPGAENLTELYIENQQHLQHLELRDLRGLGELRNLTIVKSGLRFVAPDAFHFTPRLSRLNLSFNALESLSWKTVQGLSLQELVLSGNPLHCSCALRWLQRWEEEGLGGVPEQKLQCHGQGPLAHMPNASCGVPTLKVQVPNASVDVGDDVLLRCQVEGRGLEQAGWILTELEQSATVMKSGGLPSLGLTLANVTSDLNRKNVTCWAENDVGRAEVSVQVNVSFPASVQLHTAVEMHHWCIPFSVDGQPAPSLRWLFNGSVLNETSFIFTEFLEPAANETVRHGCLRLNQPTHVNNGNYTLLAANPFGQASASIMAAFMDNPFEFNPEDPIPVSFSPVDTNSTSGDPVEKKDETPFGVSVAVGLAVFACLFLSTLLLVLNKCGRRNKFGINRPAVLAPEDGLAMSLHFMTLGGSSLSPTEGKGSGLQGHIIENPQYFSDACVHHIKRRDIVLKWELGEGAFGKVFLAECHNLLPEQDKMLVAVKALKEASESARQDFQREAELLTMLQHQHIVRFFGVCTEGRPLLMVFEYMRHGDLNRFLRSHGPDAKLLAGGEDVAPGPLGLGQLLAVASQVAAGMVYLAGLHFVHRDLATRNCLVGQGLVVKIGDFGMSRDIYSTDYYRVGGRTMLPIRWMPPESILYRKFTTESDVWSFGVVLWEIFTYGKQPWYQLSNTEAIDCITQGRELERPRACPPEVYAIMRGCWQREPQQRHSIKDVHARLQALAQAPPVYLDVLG
- ASSAY OVERVIEW: NTRK1 Wild Type Assay at 1 mM ATP
- Assay type: biochemical
- EXPERIMENTAL SETUP: wild type NTRK1, 1 mM ATP; read-out: NTRK1 IC50
pIC50: −log10 of the molar value.
PARAMETER MEASURED: pIC50

>  <COMPOUND STRUCTURE>
N#Cc1cnn2ccc(N3C[C@@H](F)C[C@@H]3c3cc(F)cc(C(=O)NCCO)c3)nc12

>  <pIC50>
7.00 to 8.00

$$$$
>  <COMPOUND STRUCTURE>
N#Cc1cnn2ccc(N3C[C@@H](F)C[C@@H]3c3cc(F)ccc3C(N)=O)nc12

>  <pIC50>
7.00 to 8.00

$$$$
>  <COMPOUND STRUCTURE>
COc1c(F)cc(F)cc1[C@H]1C[C@H](F)CN1c1ccn2ncc(C#N)c2n1

>  <pIC50>
> 8.00

$$$$
>  <COMPOUND STRUCTURE>
CNC(=O)c1cc(F)cc([C@H]2C[C@H](F)CN2c2ccn3ncc(C#N)c3n2)c1

>  <pIC50>
7.00 to 8.00

$$$$
>  <COMPOUND STRUCTURE>
N#Cc1cnn2ccc(N3C[C@@H](F)C[C@@H]3c3cc(F)ccc3F)nc12

>  <pIC50>
> 8.00

$$$$

Report pIC50 for every entry below.
1. CC(C)(O)c1cc(F)cc([C@H]2C[C@H](F)CN2c2ccn3ncc(C#N)c3n2)c1
2. N#Cc1cc(F)cc([C@H]2C[C@H](F)CN2c2ccn3ncc(C#N)c3n2)c1
3. N#Cc1cnn2cc(F)c(N3C[C@@H](F)C[C@@H]3c3cc(F)cc(C(N)=O)c3)nc12

Given back:
1. 7.00 to 8.00
2. > 8.00
3. > 8.00

----------
- Test system: KM12 Cliff (G595R) cell line
- ASSAY OVERVIEW: NTRK G595R mutant cellular assay (KM12 Cliff, CellTiter-Glo)
- Type: cell-based
- EXPERIMENTAL SETUP: Homo sapiens; KM12 Cliff (G595R) cells, 72 hr, CellTiter-Glo
- Experimental: NTRK Wild Type and G595R Mutant Cellular Assays Protocol KM12 wild type colon carcinoma cell line harboring the TPM3-NTRK1 fusion protein was obtained from the National Cancer Institute (NCI). […] 72 hr after dosing, assay plates were developed using CellTiter-Glo (Promega) and resultant luminescence was read on the Envision plate reader. IC50 determinations were calculated using a 4-parameter curve fitting algorithm
pIC50: −log10 of the molar value.
PARAMETER MEASURED: pIC50

Field: example entries. Status: answers known.
>  <COMPOUND STRUCTURE>
N#Cc1cnn2ccc(N3C[C@@H](F)C[C@@H]3c3cc(F)ccc3C(N)=O)nc12

>  <pIC50>
6.00 to 7.00

$$$$
>  <COMPOUND STRUCTURE>
COc1c(F)cc(F)cc1[C@H]1C[C@H](F)CN1c1ccn2ncc(C#N)c2n1

>  <pIC50>
> 8.00

$$$$
>  <COMPOUND STRUCTURE>
CNC(=O)c1cc(F)cc([C@H]2C[C@H](F)CN2c2ccn3ncc(C#N)c3n2)c1

>  <pIC50>
7.00 to 8.00

$$$$
>  <COMPOUND STRUCTURE>
N#Cc1cnn2cc(F)c(N3C[C@@H](F)C[C@@H]3c3cncc(F)c3)nc12

>  <pIC50>
> 8.00

$$$$
>  <COMPOUND STRUCTURE>
N#Cc1cnn2ccc(N3C[C@@H](F)C[C@@H]3c3cc(F)cc(C(=O)NCCO)c3)nc12

>  <pIC50>
7.00 to 8.00

$$$$

Give me pIC50 for each of these molecules, listed below.
1. N#Cc1cnn2cc(F)c(N3C[C@@H](F)C[C@@H]3c3cc(F)cc(C(N)=O)c3)nc12
2. N#Cc1cnn2ccc(N3C[C@@H](F)C[C@@H]3c3cc(F)cc(C(=O)NCC4CC4)c3)nc12
3. N#Cc1cnn2ccc(N3C[C@@H](F)C[C@@H]3c3cc(F)ccc3F)nc12

Given back:
7.00 to 8.00
7.00 to 8.00
> 8.00

----------
- TEST TARGET: UniProt P04629
- ASSAY OVERVIEW: NTRK1 Wild Type Assay at 1 mM ATP
- Type: biochemical
- EXPERIMENTAL SETUP: NTRK wt, known NTRK inhibitors; read-out: NTRK wt Enzyme Assay IC50
- Description: NTRK1 Wild Type Assay at 1 mM ATP The reaction was stopped by the addition of 70 μL of Stop buffer (100 mM HEPES pH 7.5, 0.015% Brij 35, 35 mM EDTA and 0.2% of Coating Reagent 3 (Caliper Lifesciences)). The plate was then read on a Caliper EZReader 2 (protocol settings: −1.7 psi, upstream voltage −500, downstream voltage −3000, post sample sip 35 s).
PARAMETER MEASURED: pIC50
Numbers only, as −log10 of the molar value.

Asked: Specify measured pIC50 for CC(C)NC(=O)[C@H]1CC[C@@H](n2c(NC(=O)c3ccc(F)cc3)nc3ccc(CN4CCC(C(C)(C)O)CC4)cc32)CC1 [TSR-011, reference compound] .
Given back: 8.64
